Catalogue of glycan array binding signal (z-score) values
Tested System: GlcNAc(b1-4)Gal(b1-4)GlcNAc
Protocol Summary: glycan array binding signal (z-score within array); higher = stronger binding
Condition: glycan notation: IUPAC condensed, linker removed
About 410 targets per protein were measured; listed, in parts, are those with the strongest signals and a random draw of the rest.
Just the number, please, no unit attached.

1. AAL (Aleuria aurantia), P18891 (protein) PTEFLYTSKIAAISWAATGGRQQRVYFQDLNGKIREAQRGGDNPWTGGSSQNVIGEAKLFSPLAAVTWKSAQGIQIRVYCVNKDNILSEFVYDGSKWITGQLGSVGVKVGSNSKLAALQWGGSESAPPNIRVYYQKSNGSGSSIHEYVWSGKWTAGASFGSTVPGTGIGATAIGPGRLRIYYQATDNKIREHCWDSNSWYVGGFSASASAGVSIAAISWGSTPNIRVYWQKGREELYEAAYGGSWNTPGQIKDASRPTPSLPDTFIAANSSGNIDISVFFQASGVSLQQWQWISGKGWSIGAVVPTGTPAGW : -0.525
2. DrGRIFIN (Danio rerio), Q6DGJ1 (protein) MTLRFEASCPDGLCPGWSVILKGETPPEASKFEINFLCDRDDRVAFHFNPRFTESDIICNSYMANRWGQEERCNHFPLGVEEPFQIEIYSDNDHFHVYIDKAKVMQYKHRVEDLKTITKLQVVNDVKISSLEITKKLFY : -0.166

QUERY: Give a short answer stating reported glycan array binding signal (z-score) for CTLY 1 (Homo sapiens), Q6ZS10 (protein) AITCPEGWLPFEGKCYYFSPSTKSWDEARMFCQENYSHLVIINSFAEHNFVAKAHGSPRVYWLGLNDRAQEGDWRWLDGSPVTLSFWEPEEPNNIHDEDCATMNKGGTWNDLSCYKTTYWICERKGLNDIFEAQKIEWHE .
RESULT: -0.212
